Target: T1, rat CD47 (rat, UniProt P97829 19-303)
T1 construct: whole, on cells; also called CD47 on rat RBCs
T1 sequence (looked up): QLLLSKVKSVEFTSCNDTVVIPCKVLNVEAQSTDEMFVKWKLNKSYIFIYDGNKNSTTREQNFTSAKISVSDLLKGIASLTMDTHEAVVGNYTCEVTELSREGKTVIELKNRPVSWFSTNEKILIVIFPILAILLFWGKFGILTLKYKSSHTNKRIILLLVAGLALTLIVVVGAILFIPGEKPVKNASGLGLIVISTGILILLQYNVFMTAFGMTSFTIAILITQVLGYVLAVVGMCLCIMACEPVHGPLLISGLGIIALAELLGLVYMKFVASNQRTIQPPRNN
Assay: flow cytometry on RBCs, CHO supernatant 10 ng/ml
parameter_measured: mean fluorescence relative to chimeric antibody (ratio)

binder	recorded_measurement
Clone 15 (pVxK7b-037-hum15-LC / pVxK7b-037-hum15-HC) (antibody, human IgG1, kappa, V domains shown) VH: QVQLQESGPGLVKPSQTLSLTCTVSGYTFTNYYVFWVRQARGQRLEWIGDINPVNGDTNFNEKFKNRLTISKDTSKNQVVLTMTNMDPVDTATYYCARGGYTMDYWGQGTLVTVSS VL: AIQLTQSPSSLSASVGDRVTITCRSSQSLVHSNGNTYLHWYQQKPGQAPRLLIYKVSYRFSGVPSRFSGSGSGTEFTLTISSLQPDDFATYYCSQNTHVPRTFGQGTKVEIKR	2.4
Clone 12 (pVxK7b-037-hum12-LC / pVxK7b-037-hum12-HC) (antibody, human IgG1, kappa, V domains shown) VH: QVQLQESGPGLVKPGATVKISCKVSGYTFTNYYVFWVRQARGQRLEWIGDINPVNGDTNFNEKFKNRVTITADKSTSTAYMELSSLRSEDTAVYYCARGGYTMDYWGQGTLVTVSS VL: DIVMTQTPLSLPVTPGEPASISCRSSQSLVHSNGNTYLHWYQQKPGKAPKLLIYKVSYRFSGVPDRFSGSGSGTDFTLKISRVEAEDVGVYYCSQNTHVPRTFGQGTKVEIKR	1.3
Clone 16 (pVxK7b-037-hum16-LC / pVxK7b-037-hum16-HC) (antibody, human IgG1, kappa, V domains shown) VH: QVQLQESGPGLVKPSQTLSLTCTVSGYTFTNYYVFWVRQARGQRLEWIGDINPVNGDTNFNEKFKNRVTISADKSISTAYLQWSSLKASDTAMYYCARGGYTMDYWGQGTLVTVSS VL: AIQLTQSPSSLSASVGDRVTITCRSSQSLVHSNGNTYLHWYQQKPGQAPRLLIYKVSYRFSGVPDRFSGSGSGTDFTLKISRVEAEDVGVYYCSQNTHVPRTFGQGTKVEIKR	2.1
